# MIC (μg/mL) against CFS-1292 in 100% CAA (1st run/2nd run) per record follows
- Tested on: carbapenem-resistant P. aeruginosa clinical isolate CFS-1292
- method-notes: MIC by modified CLSI broth microdilution against P. aeruginosa CFS-1292 (CAA, CAA + human serum)
- Assay type: cell-based, Pseudomonas aeruginosa
- condition-details: 100% CAA; 1st run or single value
Numbers only here, please. The scale is µg/mL.

| record-sequence | u | reported-measurement |
| --- | --- | --- |
| MRRKKMSRGKSKKLFRRTAKRVHRKNLRARPMRGGIRM [AVQ206] | µg/mL | 0.5 |
| MKKRTKALLPYAVFIILSFQLTLLTALFMYYHYTF [Lvp2] | µg/mL | 32 |
| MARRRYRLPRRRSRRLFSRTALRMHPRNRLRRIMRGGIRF [Chp6] | µg/mL | 0.5 |
| MRRPRKMNYKKSKRMFSRTAARTHRKNSLRGSRPMRGGIRL [Gkh1] | µg/mL | 1 |

Let us examine a further case.
For MAYRGFKTSRVVKHRVRRRWFNHRRRYR [Spi1] , write its MIC (μg/mL) against CFS-1292 in 100% CAA (1st run/2nd run).
2

---

- Tested on: Escherichia coli
- method-notes: microbe, parasite or virus in culture
- Format: cell-based
- condition-details: Escherichia coli ATCC 25922; CAA supplemented with human serum
quantity-name: MIC (µg/mL)
Numbers only here, please. The scale is µg/mL.

A selection of reference data follows.
| record-sequence | u | MIC |
| --- | --- | --- |
| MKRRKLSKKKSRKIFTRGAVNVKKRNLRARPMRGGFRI [Chp10] | µg/mL | 0.5 |
| MSLRRHKLSRKASKRIFRKGASRTKTLNTRATPMRGGFRI [Chp9] | µg/mL | 1 |
| MRRKVKNTKRHQWRLTHSARSIKRANIMPSNPRGGRRF [Spi2] | µg/mL | 0.25 |
| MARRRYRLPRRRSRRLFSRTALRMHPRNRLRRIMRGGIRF [Chp6] | µg/mL | 1 |

For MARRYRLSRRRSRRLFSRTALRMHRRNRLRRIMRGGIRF [Chp4] , write its MIC.
0.5

For MARRKKMKGKRDKRVFKQTANKTKAINISPKNMRGGTRL [Unp3] , write its MIC.
0.5

For MAKKMTKGKDRQVFRKTADRTKKLNVRPLLYRGGIRL [Chp11] , write its MIC.
2

For MRRPRKMNYKKSKRMFSRTAARTHRKNSLRGSRPMRGGIRL [Gkh1] , write its MIC.
1

For MARSRRRMSKRSSRRSFRKYAKSHKKNFKARSMRGGIRL [Ecp2] , write its MIC.
0.5

---

# MIC (μg/mL) against CFS-1292 in 100% CAA (1st run/2nd run) per record follows
- Test system: carbapenem-resistant P. aeruginosa clinical isolate CFS-1292
- method-notes: MIC by modified CLSI broth microdilution against P. aeruginosa CFS-1292 (CAA, CAA + human serum)
- Assay type: cell-based, Pseudomonas aeruginosa
- condition-details: 100% CAA; 1st run or single value
Numbers only here, please. The scale is µg/mL.

| record-sequence | reported-measurement |
| --- | --- |
| MKPLKRKPVQKARSAAKFRRNVSTVKAANMAVKPMRGGWRF [Fen7875] | 2 |

Please report MIC (μg/mL) against CFS-1292 in 100% CAA (1st run/2nd run) with carbapenem-resistant P. aeruginosa clinical isolate CFS-1292 for item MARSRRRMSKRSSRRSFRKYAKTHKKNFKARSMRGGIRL [Ecp3] .
0.5

Please report MIC (μg/mL) against CFS-1292 in 100% CAA (1st run/2nd run) with carbapenem-resistant P. aeruginosa clinical isolate CFS-1292 for item MIVRRHKMSRRRSRKLFSKTASRTRSKNLRSRPMRGGYRI [Unp4] .
2

Please report MIC (μg/mL) against CFS-1292 in 100% CAA (1st run/2nd run) with carbapenem-resistant P. aeruginosa clinical isolate CFS-1292 for item MLTVWSDTPTIKRRKDMYRKRMSRKKSKKVFAKTAMKVNKRNHVKPMRGGYRI [Gkh3] .
0.5

Please report MIC (μg/mL) against CFS-1292 in 100% CAA (1st run/2nd run) with carbapenem-resistant P. aeruginosa clinical isolate CFS-1292 for item MRRKVKNTKRHQWRLTHSARSIKRANIMPSNPRGGRRF [Spi2] .
16

---

- Test system: M. intracellulare
- method-notes: 45 hr MIC against M. intracellulare (NTM)
- Type: cell-based, Mycobacterium intracellulare
- condition-details: M. intracellulare (Cuttino and McCabe) Runyon ATCC 13950
# 45 hr MIC per record follows
Numbers only here, please. The scale is µg/mL.

| record-sequence | measured-on | reported-measurement |
| --- | --- | --- |
| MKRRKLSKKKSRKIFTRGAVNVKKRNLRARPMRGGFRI [Chp10] | M. intracellulare | 0.5 |
| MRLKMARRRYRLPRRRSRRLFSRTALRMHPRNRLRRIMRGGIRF [Chp2] | M. intracellulare | 0.5 |

For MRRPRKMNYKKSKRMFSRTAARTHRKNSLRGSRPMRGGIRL [Gkh1] , write its 45 hr MIC.
4

For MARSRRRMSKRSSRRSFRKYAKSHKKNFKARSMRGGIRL [Ecp2] , write its 45 hr MIC.
8

For MAKKIRNKARDRRIFTRTASRMHKANRTPRFMRGGIRL [ALCES1] , write its 45 hr MIC.
2

For MAYRGFKTSRVVKHRVRRRWFNHRRRYR [Spi1] , write its 45 hr MIC.
4

For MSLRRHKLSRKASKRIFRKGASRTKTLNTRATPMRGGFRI [Chp9] , write its 45 hr MIC.
4

For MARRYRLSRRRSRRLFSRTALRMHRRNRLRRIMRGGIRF [Chp4] , write its 45 hr MIC.
1

For MIVRRHKMSRRRSRKLFSKTASRTRSKNLRSRPMRGGYRI [Unp4] , write its 45 hr MIC.
4

For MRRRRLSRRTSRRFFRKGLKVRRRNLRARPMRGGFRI [Unp2] , write its 45 hr MIC.
1

---

- Test system: M. smegmatis
- method-notes: 45 hr MIC against M. smegmatis (NTM), Mueller Hinton broth
- Type: cell-based, Mycobacterium smegmatis
- condition-details: M. smegmatis MC^2 155, Run #1
Ends that are not written are not given here.
# 45 hr MIC per record follows

A selection of reference data follows.
| record-sequence | reported-measurement |
| --- | --- |
| MKRRKMTRKGSKRLFTATADKTKSINTAPPPMRGGIRL [Chp7] | 128 µg/mL |
| MKLTKSDIAYREALGLSTTDPLPAEIGMVTRRANRLKRPRKTARFR [Myo1] | >64 µg/mL |
| MAKKIRNKARDRRIFTRTASRMHKANRTPRFMRGGIRL [ALCES1] | 1 µg/mL |
| MAKRHKIPQRASQHSFTRHAQKVHPKNVPRLPMRGGIRL [AVQ244] | 64 µg/mL |
| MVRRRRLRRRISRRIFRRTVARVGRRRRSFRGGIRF [Chp1] | 8 µg/mL |
| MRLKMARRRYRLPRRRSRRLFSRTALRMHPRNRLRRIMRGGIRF [Chp2] | 4 µg/mL |
| MRPVKRSRVNKARSAGKFRKQVGKTKMANLRSNPMRGGWRL [HH3930] | 4 µg/mL |
| MSKKASRKSFTKGAVKVHKKNVPTRVPMRGGIRL [Gkh2] | 32 µg/mL |
| MCKKVCKKCPKKGPKNAPKIGAFYERKTPRLKQST [CPAR39] | >128 µg/mL |

Let us examine a further case.
Please report 45 hr MIC with M. smegmatis for item MRKRMSKRVDKKVFRRTAASAKKINIDPKIYRGGIRL [Osp1] .
32 µg/mL

---

- System: Acinetobacter baumannii
- method-notes: microbe, parasite or virus in culture
- Format: cell-based
- condition-details: Acinetobacter baumannii (clinical isolate HSS), RSC 32; CAA without human serum
quantity-name: MIC (µg/mL)
Numbers only here, please. The scale is µg/mL.

| record-sequence | measured-on | MIC [µg/mL] |
| --- | --- | --- |
| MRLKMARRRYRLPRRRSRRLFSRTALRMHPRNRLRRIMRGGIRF [Chp2] | Acinetobacter baumannii | 2 |
| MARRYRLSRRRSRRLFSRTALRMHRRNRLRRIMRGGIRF [Chp4] | Acinetobacter baumannii | 4 |
| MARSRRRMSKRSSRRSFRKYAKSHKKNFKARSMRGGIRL [Ecp2] | Acinetobacter baumannii | 2 |
| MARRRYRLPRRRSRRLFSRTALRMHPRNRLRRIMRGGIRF [Chp6] | Acinetobacter baumannii | 2 |
| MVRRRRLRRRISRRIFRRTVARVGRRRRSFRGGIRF [Chp1] | Acinetobacter baumannii | 8 |

Let us examine a further case.
Please report MIC with Acinetobacter baumannii for item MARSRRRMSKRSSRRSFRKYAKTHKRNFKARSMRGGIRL [Ecp1] .
2
